- Protocol: Toxicity in C57BL/6 mouse assessed as body weight loss measured on day 6 at 20 mg/kg, ip administered on day 0, 7, 14 and 29
- Run Conditions: in vivo
Observation Type: body weight loss at 96 h (%)
Please respond with the number in % and leave the unit unwritten.

Ask: Given the compound `[Br-].[Br-].c1ccc2cc(Cn3cc[n+](CCCCCCCCCCn4cc[n+](Cc5ccc6ccccc6c5)c4)c3)ccc2c1` , what is its reported body weight loss at 96 h?
Reply: 10

* * *

- Test system: NCI-H226
- Protocol: Antiproliferative activity against human NCI-H226 cells assessed as cell growth at 10 uM incubated for 48 hrs by sulforhodamine B assay relative to control
- Assay type: functional
- Run Conditions: read-out: Activity
Rule: growth at 10 µM under 70% gives False, otherwise True.

[
  {
    "Molecule Smiles": "c1ccc2cc(Cn3cc[n+](CCCCCn4cc[n+](Cc5ccc6ccccc6c5)c4)c3)ccc2c1",
    "Qualitative Label": "True"
  },
  {
    "Molecule Smiles": "c1ccc2cc(Cn3cc[n+](Cn4cc[n+](Cc5ccc6ccccc6c5)c4)c3)ccc2c1",
    "Qualitative Label": "True"
  },
  {
    "Molecule Smiles": "c1ccc2cc(Cn3cc[n+](CCCCCCCCCCCCn4cc[n+](Cc5ccc6ccccc6c5)c4)c3)ccc2c1",
    "Qualitative Label": "False"
  },
  {
    "Molecule Smiles": "c1ccc2cc(Cn3cc[n+](CCCCn4cc[n+](Cc5ccc6ccccc6c5)c4)c3)ccc2c1",
    "Qualitative Label": "True"
  }
]

Now consider a different molecule.
Ask: Can `c1ccc2cc(Cn3cc[n+](CCCn4cc[n+](Cc5ccc6ccccc6c5)c4)c3)ccc2c1` be said to have growth at 10 µM at or above 70%?
Reply: True

* * *

- System: NCI-H522
- Protocol: Antiproliferative activity against human NCI-H522 cells assessed as cell growth at 10 uM incubated for 48 hrs by sulforhodamine B assay relative to control
- Type: functional
- Run Conditions: read-out: Activity
Observation Type: growth at 10 µM

Solved entries:
[
  {
    "Molecule Smiles": "c1ccc2cc(Cn3cc[n+](CCCn4cc[n+](Cc5ccc6ccccc6c5)c4)c3)ccc2c1",
    "Observed Result": "56.6%"
  },
  {
    "Molecule Smiles": "c1ccc2cc(Cn3cc[n+](CCCCn4cc[n+](Cc5ccc6ccccc6c5)c4)c3)ccc2c1",
    "Observed Result": "43.4%"
  },
  {
    "Molecule Smiles": "c1ccc2cc(Cn3cc[n+](CCCCCn4cc[n+](Cc5ccc6ccccc6c5)c4)c3)ccc2c1",
    "Observed Result": "35.7%"
  },
  {
    "Molecule Smiles": "c1ccc2cc(Cn3cc[n+](CCCCCCCn4cc[n+](Cc5ccc6ccccc6c5)c4)c3)ccc2c1",
    "Observed Result": "5.87%"
  },
  {
    "Molecule Smiles": "c1ccc2cc(Cn3cc[n+](Cn4cc[n+](Cc5ccc6ccccc6c5)c4)c3)ccc2c1",
    "Observed Result": "51%"
  }
]

Could you now look at the following molecule, please?
Ask: // growth at 10 µM lookup, key: `c1ccc2cc(Cn3cc[n+](CCCCCCn4cc[n+](Cc5ccc6ccccc6c5)c4)c3)ccc2c1`
Reply: 33.1%

* * *

- Tested on: A549
- Protocol: Cytotoxicity against human A549 cells assessed as cell growth inhibition measured after 72 hrs by MTT assay
- Format: functional, cell-based
- Run Conditions: A549, 72 h
Observation Type: pIC50
# reply with the number alone; pIC50 is -log10 of concentration in mol/L

Worked cases, pIC50 given:
[
  {
    "Molecule Smiles": "c1ccc2cc(Cn3cc[n+](CCCn4cc[n+](Cc5ccc6ccccc6c5)c4)c3)ccc2c1",
    "Target Or Test System": "A549",
    "pIC50": 4.66
  },
  {
    "Molecule Smiles": "c1ccc2cc(Cn3cc[n+](CCCCn4cc[n+](Cc5ccc6ccccc6c5)c4)c3)ccc2c1",
    "Target Or Test System": "A549",
    "pIC50": 5.40
  },
  {
    "Molecule Smiles": "c1ccc2cc(Cn3cc[n+](CCCCCn4cc[n+](Cc5ccc6ccccc6c5)c4)c3)ccc2c1",
    "Target Or Test System": "A549",
    "pIC50": 5.40
  }
]

// below: pIC50 requested for another molecule
Ask: Need pIC50 of `c1ccc2cc(Cn3cc[n+](CCCCCCCn4cc[n+](Cc5ccc6ccccc6c5)c4)c3)ccc2c1` , thanks.
Reply: 5.70

* * *

- Test system: NCI-H226
- Protocol: Antiproliferative activity against human NCI-H226 cells assessed as cell growth at 10 uM incubated for 48 hrs by sulforhodamine B assay relative to control
- Type: functional
- Run Conditions: read-out: Activity
Observation Type: growth at 10 µM (%)
Give just the number in %; leave the unit off.

[
  {
    "Molecule Smiles": "c1ccc2cc(Cn3cc[n+](CCCCCCCn4cc[n+](Cc5ccc6ccccc6c5)c4)c3)ccc2c1",
    "growth at 10 µM / %": 59.5
  },
  {
    "Molecule Smiles": "[Br-].[Br-].c1ccc2cc(Cn3cc[n+](CCCCCCCCCCn4cc[n+](Cc5ccc6ccccc6c5)c4)c3)ccc2c1",
    "growth at 10 µM / %": 39.5
  },
  {
    "Molecule Smiles": "c1ccc2cc(Cn3cc[n+](CCCCCCn4cc[n+](Cc5ccc6ccccc6c5)c4)c3)ccc2c1",
    "growth at 10 µM / %": 69.6
  }
]

# next compound below
Ask: Give its growth at 10 µM value. Item: `c1ccc2cc(Cn3cc[n+](CCn4cc[n+](Cc5ccc6ccccc6c5)c4)c3)ccc2c1`
Reply: 82.7

* * *

Catalogue of IC50 values
- Tested on: NCI-H1975
- Protocol: Cytotoxicity against human NCI-H1975 cells assessed as cell growth inhibition measured after 72 hrs by MTT assay
- Assay type: functional, cell-based
- Run Conditions: NCI-H1975, 72 h
Reply numerically in µM, unit not repeated.

Worked cases, IC50 given:
[
  {
    "Molecule Smiles": "c1ccc2cc(Cn3cc[n+](CCCCCCCn4cc[n+](Cc5ccc6ccccc6c5)c4)c3)ccc2c1",
    "IC50 / µM": 3
  },
  {
    "Molecule Smiles": "c1ccc2cc(Cn3cc[n+](CCCCn4cc[n+](Cc5ccc6ccccc6c5)c4)c3)ccc2c1",
    "IC50 / µM": 11
  },
  {
    "Molecule Smiles": "c1ccc2cc(Cn3cc[n+](CCCCCCn4cc[n+](Cc5ccc6ccccc6c5)c4)c3)ccc2c1",
    "IC50 / µM": 6
  },
  {
    "Molecule Smiles": "[Br-].[Br-].c1ccc2cc(Cn3cc[n+](CCCCCCCCCCn4cc[n+](Cc5ccc6ccccc6c5)c4)c3)ccc2c1",
    "IC50 / µM": 2
  },
  {
    "Molecule Smiles": "c1ccc2cc(Cn3cc[n+](Cc4ccc5ccccc5c4)c3)ccc2c1",
    "IC50 / µM": 6
  }
]

Now consider the entry below.
Ask: Which measured IC50 belongs to `c1ccc2cc(Cn3cc[n+](CCCCCn4cc[n+](Cc5ccc6ccccc6c5)c4)c3)ccc2c1` , tested on NCI-H1975?
Reply: 12

* * *

- Test system: EKVX
- Protocol: Antiproliferative activity against human EKVX cells assessed as cell growth at 10 uM incubated for 48 hrs by sulforhodamine B assay relative to control
- Type: functional
- Run Conditions: read-out: Activity
Observation Type: growth at 10 µM
# do not omit the unit; it follows the number

Study these solved cases before continuing.
[
  {
    "Molecule Smiles": "c1ccc2cc(Cn3cc[n+](CCCCCCn4cc[n+](Cc5ccc6ccccc6c5)c4)c3)ccc2c1",
    "growth at 10 µM": "37.3%"
  },
  {
    "Molecule Smiles": "c1ccc2cc(Cn3cc[n+](CCCCCn4cc[n+](Cc5ccc6ccccc6c5)c4)c3)ccc2c1",
    "growth at 10 µM": "47.1%"
  },
  {
    "Molecule Smiles": "c1ccc2cc(Cn3cc[n+](CCCCn4cc[n+](Cc5ccc6ccccc6c5)c4)c3)ccc2c1",
    "growth at 10 µM": "58.1%"
  }
]

Ask: Returns the measured growth at 10 µM for the input compound. Input: `c1ccc2cc(Cn3cc[n+](CCCn4cc[n+](Cc5ccc6ccccc6c5)c4)c3)ccc2c1`
Reply: 82.7%

* * *

- System: A549
- Protocol: Cytotoxicity against human A549 cells assessed as cell growth inhibition measured after 72 hrs by MTT assay
- Format: functional, cell-based
- Run Conditions: A549, 72 h
pIC50: −log10 of the molar value.
Observation Type: pIC50

[
  {
    "Molecule Smiles": "c1ccc2cc(Cn3cc[n+](CCCCCCCCCCCCn4cc[n+](Cc5ccc6ccccc6c5)c4)c3)ccc2c1",
    "pIC50": "> 6.00"
  },
  {
    "Molecule Smiles": "c1ccc2cc(Cn3cc[n+](CCCCCCn4cc[n+](Cc5ccc6ccccc6c5)c4)c3)ccc2c1",
    "pIC50": "> 6.00"
  },
  {
    "Molecule Smiles": "[Br-].[Br-].c1ccc2cc(Cn3cc[n+](CCCCCCCCCCn4cc[n+](Cc5ccc6ccccc6c5)c4)c3)ccc2c1",
    "pIC50": "> 6.00"
  },
  {
    "Molecule Smiles": "c1ccc2cc(Cn3cc[n+](Cn4cc[n+](Cc5ccc6ccccc6c5)c4)c3)ccc2c1",
    "pIC50": "< 4.52"
  }
]

Now look at this entry.
Ask: Endpoint output: pIC50 of `c1ccc2cc(Cn3cc[n+](CCn4cc[n+](Cc5ccc6ccccc6c5)c4)c3)ccc2c1` . Value?
Reply: < 4.52
